Values were extracted from patent US20250115676A1.

# subject.of.test: shADAM9-His (His-tagged soluble human ADAM9) (human) (UniProt Q13443)
# assay.info: BIACORE SPR; antibody captured, huADAM9-His as analyte
Measured pKd, listed per entry for reference.
To interpret pKd, take it as minus log10 of a concentration measured in moles per litre.

Worked set:
>  <binder>
hMAB-A (2D.2) (antibody, V domains shown) VH: EVQLVESGGGLVKPGGSLRLSCAASGFTFSSYWMHWVRQAPGKGLEWVGEIIPIFGHTNYNEKFKSRFTISLDNSKNTLYLQMGSLRAEDTAVYYCARGGYYYYTGKGVLDYWGQGTTVTVSS VL: DIVMTQSPDSLAVSLGERATISCKASQSVDYSGDSYMNWYQQKPGQPPKLLIYAASDLESGIPARFSGSGSGTDFTLTISSLEPEDFATYYCQQSHEDPFTFGQGTKLEIK

>  <pKd>
9.10

$$$$
>  <binder>
hMAB-A (2I.2) (antibody, V domains shown) VH: EVQLVESGGGLVKPGGSLRLSCAASGFTFSSYWMHWVRQAPGKGLEWVGEIIPIFGHTNYNEKFKSRFTISLDNSKNTLYLQMGSLRAEDTAVYYCARGGYYYYPRQGFLDYWGQGTTVTVSS VL: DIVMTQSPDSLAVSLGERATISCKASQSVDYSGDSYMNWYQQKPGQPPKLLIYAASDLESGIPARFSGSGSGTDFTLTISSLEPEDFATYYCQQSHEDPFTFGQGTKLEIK

>  <pKd>
9.40

$$$$
>  <binder>
hMAB-A (2C.2) (antibody, V domains shown) VH: EVQLVESGGGLVKPGGSLRLSCAASGFTFSSYWMHWVRQAPGKGLEWVGEIIPIFGHTNYNEKFKSRFTISLDNSKNTLYLQMGSLRAEDTAVYYCARGGYYYYPRFGWLDYWGQGTTVTVSS VL: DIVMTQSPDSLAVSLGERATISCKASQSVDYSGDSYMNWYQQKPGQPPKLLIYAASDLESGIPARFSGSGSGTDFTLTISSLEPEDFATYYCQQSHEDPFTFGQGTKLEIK

>  <pKd>
8.85

$$$$

Now take the following binder into account.
Data request: Param item = hMAB-A (2B.2) (antibody, V domains shown) VH: EVQLVESGGGLVKPGGSLRLSCAASGFTFSSYWMHWVRQAPGKGLEWVGEIIPIFGHTNYNEKFKSRFTISLDNSKNTLYLQMGSLRAEDTAVYYCARGGYYYYIGKGVLDYWGQGTTVTVSS VL: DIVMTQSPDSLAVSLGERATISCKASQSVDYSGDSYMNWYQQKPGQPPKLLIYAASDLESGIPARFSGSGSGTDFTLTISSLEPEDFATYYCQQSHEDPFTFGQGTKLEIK ; retrieve measured pKd.
Data returned: 9.22
